Hello, the source for this data is the supplement of paper PMC11208160, in case you need it.

Items are presented alongside their recorded recombinant UMI read abundance (log10).
# Assay remarks: recombinant UMI read abundance after kanamycin selection (control-corrected) (log10(CPM+1)); higher = more efficient recombination; extreme values may be limits of the assay; sequences stand for … in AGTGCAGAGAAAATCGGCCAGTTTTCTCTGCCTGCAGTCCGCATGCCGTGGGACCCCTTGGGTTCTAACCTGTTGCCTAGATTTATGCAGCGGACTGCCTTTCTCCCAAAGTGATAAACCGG…AGGTTGGTTTCACT; site = the 11-nt donor;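 note: IS621 bridge recombinase in Escherichia coli cells against a fixed T5 target plasmid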
Output spec: single numeric token, no unit.

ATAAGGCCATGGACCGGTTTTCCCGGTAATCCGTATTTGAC (site ATAAGGCCTCT): 0.0671
GTTAGAACATGGACCGGTTTTCCCGGTAATCCGTATTTGGG (site GTTAGAACTGC): 0
GCCAAGCCATGGACCGGTTTTCCCGGTAATCCGTATTTGGG (site GCCAAGCCTCC): 0.0135
ACTCGAACATGGACCGGTTTTCCCGGTAATCCGTATTTGAG (site ACTCGAACTCT): 1.16
CTCTATACATGGACCGGTTTTCCCGGTAATCCGTATTTGAC (site TTCTATACTGT): 0
AGGACTACATGGACCGGTTTTCCCGGTAATCCGTATTTGTC (site AGGACTACTGG): 0
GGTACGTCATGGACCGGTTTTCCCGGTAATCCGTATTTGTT (site GGTACATCTAA): 0.535
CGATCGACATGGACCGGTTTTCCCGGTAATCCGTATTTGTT (site CGATCGCCTAA): 0.00955
GACAGCTCATGGACCGGTTTTCCCGGTAATCCGTATTTGGT (site GACAGCTCTAC): 1.68
CACTTGCCATGGACCGGTTTTCCCGGTAATCCGTATTTGGA (site CACTTGCCTTC): 0.021

State its recombinant UMI read abundance (log10): GAGCCTTCATGGACCGGTTTTCCCGGTAATCCGTATTTGGT (site TAGCCTTCTAC)
0.0029

State its recombinant UMI read abundance (log10): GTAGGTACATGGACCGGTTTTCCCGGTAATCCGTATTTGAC (site GTACGTACTGT)
0.584

State its recombinant UMI read abundance (log10): GATTGTCCATGGACCGGTTTTCCCGGTAATCCGTATTTGCT (site GATTATCCTAG)
0

State its recombinant UMI read abundance (log10): TTCGCTACATGGACCGGTTTTCCCGGTAATCCGTATTTGGC (site TTCGCTACTGC)
0

State its recombinant UMI read abundance (log10): CGAGGTGCATGGACCGGTTTTCCCGGTAATCCGTATTTGAT (site CGAGGTGCTAT)
2.36

State its recombinant UMI read abundance (log10): GGGGATACATGGACCGGTTTTCCCGGTAATCCGTATTTGAT (site GGGGATACTAT)
1.2

State its recombinant UMI read abundance (log10): ATCAACTCATGGACCGGTTTTCCCGGTAATCCGTATTTGTG (site ATCAACTCTCA)
2.13
